Cited source: patent US11000491B2

System: Huh7 cells
ASSAY OVERVIEW: LD content in Huh7 cells pre-treated with insulin, Oil-Red-O staining, absorbance OD 540 nm
Format: cell-based
DETAILS: Homo sapiens, Huh-7, Huh7 cells, procedure of Example 3; read-out: LD content inhibition (EC50)
RESULT TYPE: pEC50
Answers are plain numbers, as −log10 of the molar value.

// worked examples, pEC50 included
1) NC(=O)c1cc(-c2ccc(Cl)cc2)cc(OCCc2ccc(S(N)(=O)=O)cc2)c1N :: 6.09
2) CCCNS(=O)(=O)c1cccc(Oc2cc(-c3ccc(Cl)cc3)cc(C(N)=O)c2N)c1 :: 6.03
3) CCCC(=O)Nc1cccc(/C=C/c2cc(C(N)=O)c(N)c(-c3ccc(S(N)(=O)=O)cc3)c2)c1 :: 6.19
4) Cc1ccc(NC(=O)/C=C/c2cc(C(N)=O)c(N)c(-c3ccc(S(N)(=O)=O)cc3)c2)cc1 :: 6.08
5) NS(=O)(=O)c1ccc(-c2cc(-c3ccc(Br)cc3)cc3c(=O)[nH]c(=O)[nH]c23)cc1 :: 5.94

Need pEC50 for each of these compounds.
1. Cc1ccc(C(=O)OCC#Cc2cc(C(N)=O)c(N)c(-c3ccc(S(N)(=O)=O)cc3)c2)cc1
2. NC(=O)c1cc(-c2c[nH]c(Br)c2)cc(-c2ccc(S(N)(=O)=O)cc2)c1N
3. NC(=O)c1cc(-c2ccc(Cl)cc2)cc(-c2ccc(N3CC=NC3=O)cc2)c1N

Result:
1: 6.28; 2: 5.69; 3: 6.38

====

Test system: Huh7 cells
ASSAY OVERVIEW: LD content in Huh7 cells pre-treated with insulin, Oil-Red-O staining, absorbance OD 540 nm
Format: cell-based
DETAILS: Homo sapiens, Huh-7, Huh7 cells, procedure of Example 3; read-out: LD content inhibition (EC50)
Give EC50 for every item shown.
State the result as a value with its unit after it.

// worked examples, EC50 included
1) Nc1c(C(=O)NCc2ccc[nH]2)cc(-c2ccc(Cl)cc2)cc1-c1ccc(S(N)(=O)=O)cc1 :: 1370 nM
2) Nc1c(C(=O)Nc2ccc(O)c(O)c2)cc(-c2ccc(Cl)cc2)cc1-c1ccc(S(N)(=O)=O)cc1 :: 320 nM
3) NC(=O)c1cc(/C=C/C(=O)NCc2ccccc2)cc(-c2ccc(S(N)(=O)=O)cc2)c1N :: 380 nM
4) Nc1c(C(=O)Nc2cc[nH]c2)cc(-c2ccc(Cl)cc2)cc1-c1ccc(S(N)(=O)=O)cc1 :: 1160 nM
5) CCOC(=O)/C=C/c1cc(C(N)=O)c(N)c(-c2ccc(S(N)(=O)=O)cc2)c1 :: 2350 nM
6) NC(=O)c1cc(C#Cc2ccccc2)cc(-c2ccc(S(N)(=O)=O)cc2)c1N :: 290 nM
7) COc1cccc(NC(=O)c2cc(-c3ccc(Cl)cc3)cc(-c3ccc(S(N)(=O)=O)cc3)c2N)c1 :: 1330 nM

Lab note: next compound to report on.
Per the records, this compound ( CCCC(=O)Nc1ccc(-c2cc(-c3ccc(Cl)cc3)cc(C(N)=O)c2N)cc1 ) has EC50 equal to 500 nM

====

Test system: SREBP-2
ASSAY OVERVIEW: SREBP-2 expression in cultured primary human hepatocytes
Format: cell-based
DETAILS: Homo sapiens, Hepatocyte, procedure of Example 6, read-out: SREBP-2 mRNA inhibition (EC50)
Give pEC50 for every item shown.
Answers are plain numbers, as −log10 of the molar value.

// worked examples, pEC50 included
1. NS(=O)(=O)c1ccc(-c2cc(-c3ccc(Br)cc3)cc3c(=O)[nH]c(=O)[nH]c23)cc1 [HPN-01610] :: 5.46
2. Nc1c(C(=O)Nc2ccc[nH]2)cc(-c2ccc(Cl)cc2)cc1-c1ccc(S(N)(=O)=O)cc1 [HPN-01626] :: 4.90
3. COC(=O)c1cccc(Oc2cc(C(N)=O)c(N)c(-c3ccc(S(N)(=O)=O)cc3)c2)c1 [HPN-01320] :: 5.67

Lab note: next compound to report on.
Per the records, this compound ( CCCCCCCOC(=O)/C=C/c1cc(C(N)=O)c(N)c(-c2ccc(S(N)(=O)=O)cc2)c1 [HPN-01118] ) has pEC50 equal to 5.60

====

Test system: SREBP-2
ASSAY OVERVIEW: SREBP-2 expression in cultured primary human hepatocytes
Assay type: cell-based
DETAILS: Homo sapiens, Hepatocyte, procedure of Example 6, read-out: SREBP-2 mRNA inhibition (EC50)
Mark criterion met only when EC50 stays strictly below 3000 nM. Values equal to the cut-off are criterion not met.

Below, 3 compounds whose answers are already recorded.
1) CCCNS(=O)(=O)c1cccc(Oc2cc(-c3ccc(Cl)cc3)cc(C(N)=O)c2N)c1 :: criterion met
2) Nc1c(C(=O)NC2CC2)cc(-c2ccc(Cl)cc2)cc1-c1ccc(S(N)(=O)=O)cc1 :: criterion met
3) NC(=O)c1cc(-c2ccc(Cl)cc2)cc(NCc2ccc(S(N)(=O)=O)cc2)c1N :: criterion not met

Problem: I'd appreciate it if you could check whether COc1cccc(C(=O)OCC#Cc2cc(C(N)=O)c(N)c(-c3ccc(S(N)(=O)=O)cc3)c2)c1 has EC50 smaller than 3000 nM.
Result: criterion not met

Problem: I'd appreciate it if you could check whether Nc1c(C(=O)NC2CC2)cc(-c2ccc(Br)cc2)cc1-c1ccc(S(N)(=O)=O)cc1 has EC50 smaller than 3000 nM.
Result: criterion met

Problem: I'd appreciate it if you could check whether NCC(=O)Nc1c(C(N)=O)cc(-c2ccc(Cl)cc2)cc1-c1ccc(S(N)(=O)=O)cc1 has EC50 smaller than 3000 nM.
Result: criterion met

====

Tested on: Huh7 cells
ASSAY OVERVIEW: LD content in Huh7 cells pre-treated with insulin, Oil-Red-O staining, absorbance OD 540 nm
Type: cell-based
DETAILS: Homo sapiens, Huh-7, Huh7 cells, procedure of Example 3; read-out: LD content inhibition (EC50)
Give EC50 for every item shown.
One number for each entry, in µM.

1. CC(=O)OCC#Cc1cc(C(N)=O)c(N)c(-c2ccc(S(N)(=O)=O)cc2)c1 :: 1.03
2. NC(=O)c1cc(-c2ccc(Cl)cc2)cc(-c2ccc(NC(=O)Nc3cccnc3)cc2)c1N :: 0.14
3. NC(=O)c1cc(C#CCOC(=O)c2ccc[nH]2)cc(-c2ccc(S(N)(=O)=O)cc2)c1N :: 1.36
4. NC(=O)c1cc(/C=C/c2cccc(F)c2)cc(-c2ccc(S(N)(=O)=O)cc2)c1N :: 0.67
5. Nc1c(C(=O)NCCO)cc(-c2ccc(Br)cc2)cc1-c1ccc(S(N)(=O)=O)cc1 :: 1.2

Need EC50 for each of these molecules.
1. NC(=O)c1cc(-c2cc(Cl)c[nH]2)cc(-c2ccc(S(N)(=O)=O)cc2)c1N
2. NC(=O)c1cc(C#CCOC(=O)c2ccc(O)cc2)cc(-c2ccc(S(N)(=O)=O)cc2)c1N
3. Nc1c(C(=O)Nc2cccnc2)cc(-c2ccc(Cl)cc2)cc1-c1ccc(S(N)(=O)=O)cc1

Result:
3.5
0.46
2.32

====

Test system: adiponectin
ASSAY OVERVIEW: Secreted adiponectin in differentiated 3T3-L1 cells by ELISA
Assay type: cell-based
DETAILS: differentiated mouse 3T3-L1 cells
RESULT TYPE: pIC50
One number for each entry, as −log10 of the molar value.

Per the records, this molecule ( NC(=O)c1cc(-c2ccc(Cl)cc2)cc(-c2ccc(S(N)(=O)=O)cc2)c1N [HPN-01] ) has pIC50 equal to 6.49

====

Tested on: SREBP-2
ASSAY OVERVIEW: SREBP-2 expression in cultured primary human hepatocytes
Format: cell-based
DETAILS: Homo sapiens, Hepatocyte, procedure of Example 6, read-out: SREBP-2 mRNA inhibition (EC50)
RESULT TYPE: pEC50
Give bare numbers, as −log10 of the molar value.

// worked examples, pEC50 included
1. NC(=O)c1cc(C#CCOC(=O)c2ccccn2)cc(-c2ccc(S(N)(=O)=O)cc2)c1N :: 5.46
2. NC(=O)c1cc(/C=C/C(=O)O)cc(-c2ccc(S(N)(=O)=O)cc2)c1N :: 6.01
3. Nc1c(C(=O)NCc2cccnc2)cc(-c2ccc(Cl)cc2)cc1-c1ccc(S(N)(=O)=O)cc1 :: 5.41
4. Nc1c(C(=O)NCc2ccc[nH]2)cc(-c2ccc(Cl)cc2)cc1-c1ccc(S(N)(=O)=O)cc1 :: 5.07
5. CCCNC(=O)c1cc(-c2ccc(Cl)cc2)cc(-c2ccc(S(N)(=O)=O)cc2)c1N :: 5.03

Need pEC50 for each of these compounds.
1. Nc1c(C(=O)Nc2ccc(O)c(O)c2)cc(-c2ccc(Cl)cc2)cc1-c1ccc(S(N)(=O)=O)cc1
2. COc1ccc(C(=O)OCC#Cc2cc(C(N)=O)c(N)c(-c3ccc(S(N)(=O)=O)cc3)c2)cc1
3. NC(=O)c1cc(Nc2cccc(Cl)c2)cc(-c2ccc(S(N)(=O)=O)cc2)c1N

Result:
1: 5.43; 2: 5.19; 3: 4.85
